For each record, write down the corresponding pIC50.
# SYSTEM_TESTED: BTK enzyme (recombinant full-length BTK, hBTK) (Homo sapiens)
# Construct: recombinant protein from baculovirus-transfected Sf9 cells: full-length BTK, 6HIS-tag cleaved; 6HIS (cleaved yes); made in house; host or cells: baculovirus-transfected Sf9 cells
# Sequence (Q06187 whole entry): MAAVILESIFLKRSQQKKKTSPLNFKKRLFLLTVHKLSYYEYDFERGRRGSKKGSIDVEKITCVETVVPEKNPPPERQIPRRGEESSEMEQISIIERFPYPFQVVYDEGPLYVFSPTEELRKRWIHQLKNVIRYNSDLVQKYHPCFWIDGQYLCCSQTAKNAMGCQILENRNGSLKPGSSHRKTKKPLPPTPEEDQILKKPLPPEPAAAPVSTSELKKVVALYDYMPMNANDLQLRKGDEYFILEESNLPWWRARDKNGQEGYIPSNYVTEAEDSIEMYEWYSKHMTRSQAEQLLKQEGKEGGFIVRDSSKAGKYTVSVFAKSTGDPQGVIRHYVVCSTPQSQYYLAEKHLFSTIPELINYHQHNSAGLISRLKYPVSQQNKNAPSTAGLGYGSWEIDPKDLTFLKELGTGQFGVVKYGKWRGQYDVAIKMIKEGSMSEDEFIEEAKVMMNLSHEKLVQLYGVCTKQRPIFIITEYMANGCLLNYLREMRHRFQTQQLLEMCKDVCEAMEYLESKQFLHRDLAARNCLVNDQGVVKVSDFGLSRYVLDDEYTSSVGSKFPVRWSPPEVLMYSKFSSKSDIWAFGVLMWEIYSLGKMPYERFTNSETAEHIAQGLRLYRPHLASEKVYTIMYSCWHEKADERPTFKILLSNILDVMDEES
# ASSAY_REMARKS: Btk enzyme activity assay, LANCE TR-FRET
# Type: biochemical
# CONDITIONS: 50 pM hBTK, 2 μM biotin-A5-peptide, 25 μM ATP, 60 minute compound & enzyme incubation, read-out: BTK binding IC50
Scale: negative log10 of molar concentration, which is what pIC50 denotes.

**Q:** Using the record for CC(C)(C(=O)O)C1CCC(c2nc(-c3ccc(Oc4ccccc4)cc3)c3c(N)nccn23)C1 (stereo not shown) [Example 7] , report its pIC50.
**A:** 8.68

**Q:** Using the record for CC1(C)[C@@H](c2nc(-c3ccc(Oc4ccccc4)cc3)c3c(N)nccn23)CC[C@@]1(C)C(=O)O [Example 8] , report its pIC50.
**A:** 9.15

**Q:** Using the record for Nc1nccn2c(N3CCC[C@H](C(=O)O)C3)nc(-c3ccc(Oc4ccccc4)cc3)c12 [Example 1] , report its pIC50.
**A:** 8.57

**Q:** Using the record for Nc1nccn2c(C34CCC(C(=O)O)(CC3)CC4)nc(-c3ccc(Oc4ccccc4)cc3)c12 [Example 6] , report its pIC50.
**A:** 10.05

====

For each record, write down the corresponding IC50.
# SYSTEM_TESTED: BTK enzyme (recombinant full-length BTK, hBTK) (Homo sapiens)
# Construct: recombinant protein from baculovirus-transfected Sf9 cells: full-length BTK, 6HIS-tag cleaved; 6HIS (cleaved yes)
# ASSAY_REMARKS: Btk enzyme activity assay, LANCE TR-FRET
# CONDITIONS: 50 pM hBTK, 2 μM biotin-A5-peptide, 25 μM ATP, 60 minute compound & enzyme incubation, read-out: BTK binding IC50
# Procedure: BTK enzymatic activity was determined with the LANCE (Lanthanide Chelate Excite) TR-FRET (Time-resolved fluorescence resonance energy transfer) assay. […] After 60 minutes incubation with detection reagents, reaction plates were read on a PerkinElmer EnVision plate reader using standard TR-FRET protocol. […] Fluorescence intensity at both 665 nm (acceptor) and 615 nm (donor) are measured and a TR-FRET ratio calculated for each well (acceptor intensity/donor intensity). […]
Answer format: numeric, nM implied, no suffix.

**Q:** Using the record for Nc1nccn2c([C@@H]3CCC[C@H](C(=O)O)C3)nc(-c3ccc(Oc4ccccc4)cc3)c12 , report its IC50.
**A:** 7.1

**Q:** Using the record for Nc1nccn2c1c(-c1ccc(Oc3cccc(F)c3)cc1)nc2[C@H]1CC[C@@H](C(=O)O)CC1 , report its IC50.
**A:** 14.3

**Q:** Using the record for CC(C)C1(C(=O)O)CC[C@H](c2nc(-c3ccc(Oc4cccc(F)c4)cc3)c3c(N)nccn23)C1 (stereo in doubt) , report its IC50.
**A:** 1.4

**Q:** Using the record for Nc1nccn2c(C34C5C6C3C3C4C5C63C(=O)O)nc(-c3ccc(Oc4ccccc4)cc3)c12 (centres unmarked) , report its IC50.
**A:** 0.3

**Q:** Using the record for Nc1nccn2c([C@@H]3CCC[C@@H](C(=O)O)C3)nc(-c3ccc(Oc4ccccc4)cc3)c12 (relative stereo) , report its IC50.
**A:** 0.18

**Q:** Using the record for CC1(C(=O)O)CCC(C)(c2nc(-c3ccc(Oc4ccccc4)cc3)c3c(N)nccn23)C1 (single isomer, unassigned) [Example 29] , report its IC50.
**A:** 1.3

**Q:** Using the record for CC1(C(=O)O)CCCC(c2nc(-c3ccc(Oc4ccccc4)cc3)c3c(N)nccn23)C1 (centres unmarked) , report its IC50.
**A:** 1.6

**Q:** Using the record for CC(C)[C@@]1(C(=O)O)CCC(c2nc(-c3ccc(Oc4cccc(F)c4)cc3)c3c(N)nccn23)C1 (stereo in doubt) , report its IC50.
**A:** 4.4

**Q:** Using the record for CC(C)[C@]1(C(=O)O)CC[C@@H](c2nc(-c3ccc(Oc4cccc(F)c4)cc3)c3c(N)nccn23)C1 , report its IC50.
**A:** 2

**Q:** Using the record for Nc1nccn2c1c(-c1ccc(Oc3cccc(F)c3)cc1)nc2[C@H]1CC[C@H](C(=O)O)CC1 , report its IC50.
**A:** 1

**Q:** Using the record for C[C@@]1(C(=O)O)CCC[C@H](c2nc(-c3ccc(Oc4ccccc4)cc3)c3c(N)nccn23)C1 , report its IC50.
**A:** 1.3

**Q:** Using the record for C[C@]1(C(=O)O)CCC[C@@H](c2nc(-c3ccc(Oc4cccc(F)c4)cc3)c3c(N)nccn23)C1 , report its IC50.
**A:** 5.9

**Q:** Using the record for C[C@@]1(C(=O)O)CCC[C@H](c2nc(-c3ccc(Oc4cccc(F)c4)cc3)c3c(N)nccn23)C1 , report its IC50.
**A:** 3.3

**Q:** Using the record for C[C@]1(C(=O)O)CCC[C@@H](c2nc(-c3ccc(Oc4ccccc4)cc3)c3c(N)nccn23)C1 , report its IC50.
**A:** 2.4

**Q:** Using the record for Nc1nccn2c1c(-c1ccc(Oc3ccccc3)cc1)nc2[C@H]1CC[C@H](C(=O)O)CC1 , report its IC50.
**A:** 0.5

**Q:** Using the record for Nc1nccn2c(C3CCC(C(=O)O)O3)nc(-c3ccc(Oc4ccccc4)cc3)c12 (single isomer, unassigned) [Example 26] , report its IC50.
**A:** 12.5

**Q:** Using the record for Nc1nccn2c(C34C=CC(C(=O)O)(CC3)CC4)nc(-c3ccc(Oc4ccccc4)cc3)c12 , report its IC50.
**A:** 0.26

**Q:** Using the record for CC1(C(=O)O)CCC(C)(c2nc(-c3ccc(Oc4ccccc4)cc3)c3c(N)nccn23)C1 (single isomer, unassigned) [Example 28] , report its IC50.
**A:** 0.23

**Q:** Using the record for Nc1nccn2c(C34CCCC(C(=O)O)(CC3)CC4)nc(-c3ccc(Oc4ccccc4)cc3)c12 , report its IC50.
**A:** 0.14

**Q:** Using the record for C[C@]1(C(=O)O)CC[C@H](c2nc(-c3ccc(Oc4ccccc4)cc3)c3c(N)nccn32)CC1 , report its IC50.
**A:** 12.3

**Q:** Using the record for CC(C)[C@@]1(C(=O)O)CC[C@H](c2nc(-c3ccc(Oc4cccc(F)c4)cc3)c3c(N)nccn23)C1 , report its IC50.
**A:** 19.5

**Q:** Using the record for Nc1nccn2c(C3CCC(C(=O)O)O3)nc(-c3ccc(Oc4ccccc4)cc3)c12 (single isomer, unassigned) [Example 27] , report its IC50.
**A:** 12.5

**Q:** Using the record for CC1(C)[C@@H](C(=O)O)C[C@H]1c1nc(-c2ccc(Oc3ccccc3)cc2)c2c(N)nccn12 , report its IC50.
**A:** 3.5

**Q:** Using the record for CCC[C@]1(C(=O)O)CCC[C@@H](c2nc(-c3ccc(Oc4ccccc4)cc3)c3c(N)nccn23)C1 , report its IC50.
**A:** 200

**Q:** Using the record for CCC[C@@]1(C(=O)O)CCC[C@@H](c2nc(-c3ccc(Oc4ccccc4)cc3)c3c(N)nccn23)C1 , report its IC50.
**A:** 4.9

**Q:** Using the record for Nc1nccn2c(C3(C(=O)O)CCOCC3)nc(-c3ccc(Oc4ccccc4)cc3)c12 , report its IC50.
**A:** 79.6
